Give measured Imax (%) for each item. Keep answers brief.
# study_system: p-EGFR Del19/C797S (H1975-clone #23 cells) (Homo sapiens)
# assay_protocol: Cell p-EGFR inhibition assay, HTRF, H1975-clone#23 (DEL19/C797S) cells
# Type: cell-based
# assay_setup: 16 h treatment, maximum percentage of pEGFR inhibition

Q. Return Imax (%) (reported value) for this molecule: Cc1cc2cc(n1)-c1c(C)nn(C)c1OC[C@H]1CC[C@H](C1)CN1/C(=N/C2=O)Nc2ccc(N(C)C3CCN(C4CCN(c5cc(F)c([C@H]6CCC(=O)NC6=O)c(F)c5)CC4)CC3)cc21
A. 101.28%

Q. Consider the molecule Cc1cc2cc(n1)-c1c(C)nn(C)c1OC[C@H]1CC[C@H](C1)CN1/C(=N/C2=O)Nc2ccc(N3CCN(C4CCN(c5cc(F)c([C@H]6CCC(=O)NC6=O)c(F)c5)CC4)C[C@@H]3C)cc21 . State its measured Imax (%).
A. 99.96%

Q. Specify Imax (%) for COC[C@@H]1CN(c2ccc3c(c2)N2CC4CC[C@H](COc5c(cnn5C)-c5cc(cc(C)n5)C(=O)/N=C/2N3)C4)CCN1C1CN(C2CCN(c3cc(F)c([C@H]4CCC(=O)NC4=O)c(F)c3)CC2)C1 and stop.
A. 100.3%

Q. Dear colleague, please send me the reported Imax (%) for Cc1cc2cc(n1)-c1cnn(C)c1OC[C@H]1CC[C@H](C1)CN1/C(=N/C2=O)Nc2ccc(N3CCN(CC4CN(c5ccc6c(c5)CN(C5CCC(=O)NC5=O)C6=O)C4)CC3)cc21 (some centres unmarked) when you can.
A. 101.1%

Q. Please give the documented Imax (%) of COC[C@@H]1CN(c2cc3c(cc2C)N/C2=N\C(=O)c4cc(C)nc(c4)-c4cnn(C)c4OC[C@H]4CC[C@H](C4)CN23)CCN1C1CCN(c2cc(F)c([C@H]3CCC(=O)NC3=O)c(F)c2)CC1
A. 100.9%
